- assay.system: GRIP2_7, Q9C0E4
- Sequence (Q9C0E4 934-1023): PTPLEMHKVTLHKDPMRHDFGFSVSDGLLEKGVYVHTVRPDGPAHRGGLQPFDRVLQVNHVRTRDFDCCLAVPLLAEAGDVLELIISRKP
- test.description: holdup assay
- Set-up: key: below the threshold = too weak to quantify, mostly under pKd 3.1 to 4
- applied.conditions: plain residues with an end cap or a label only (N-terminal biotin on a linker: ado-ado)
readout.label: pKd

RDYTQSSSSL [GRM5, P41594] = below the threshold
ELKAEDEVQI [DCHS2, Q6V1P9] = below the threshold
GDSSRKEYFI [GYPC, P04921] = 5.33
THHRKIHTRV [ZNF599, Q96NL3] = 3.66
DAAHHDESNC [FMNL3, Q8IVF7] = below the threshold

QUERY: Which pKd is listed for HYPASPDSWV [CTNND2, Q9UQB3] ?
RESULT: 3.95

QUERY: Likewise for SSSVNVSSNL [CXCR1, P25024] ?
RESULT: below the threshold

QUERY: Likewise for KAEEKPPSKV [SCN4B, Q8IWT1] ?
RESULT: below the threshold
